# STUDY_TARGET: claudin 18.2 (CLDN 18.2), recombinant protein (human)
# Sequence (chain, as listed by the source limits assumed): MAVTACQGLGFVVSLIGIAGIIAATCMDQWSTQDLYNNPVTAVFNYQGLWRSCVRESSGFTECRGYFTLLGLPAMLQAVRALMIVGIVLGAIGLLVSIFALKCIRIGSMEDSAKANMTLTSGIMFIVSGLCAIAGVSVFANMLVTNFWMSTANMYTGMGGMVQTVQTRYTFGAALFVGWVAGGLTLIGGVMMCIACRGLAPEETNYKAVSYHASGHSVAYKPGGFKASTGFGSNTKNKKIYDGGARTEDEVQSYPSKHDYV
# ASSAY_TEXT: competitive phage ELISA, phage-displayed Fab, coated and soluble CLDN 18.2
# Set-up: unit not given here

BINDER	binding affinity
5C9oap-oaeE (5C9oap-oae with LC55E), phage-displayed Fab (Fab, V domains shown, also called 5C9oap oaeL2; 5C9oap with 5C9oae and L2 mutations) VH: EVQLVESGGGLVQPGGSLRLSCAVSGYTFSMNWVRQAPGKGLEWVAWINMYTGERTYADDFKGRFTISRDDSKNTLYLQMNSLRAEDTAVYYCARLYRGNSLDYWGQGTLVTVSS VL: DIQMTQSPSSLSASVGDRVTITCKSSQSLLNWGNQKSYLTWYQQKPGKAPKLLIYWASTLESGVPSRFSGSGSGTDYTLTISSLQPEDFATYYCQNAYFFPFTFGQGTKVEIK	0.0593
9O36, phage-displayed Fab (Fab, V domains shown) VH: EVQLVESGGGLVQPGGSLRLSCAVSGYTFSMNWVRQAPGKGLEWVAWINMYTGEPTYADDFKGRFTISRDDSKNTLYLQMNSLRAEDTAVYYCARLYNGNSLDYWGQGTLVTVSS VL: DIQMTQSPSSLSASVGDRVTITCKSSQSLLNWGNQKSYLTWYQQKPGKAPKLLIYWASTLMSGVPSRFSGSGSGTDYTLTISSLQPEDFATYYCQNAYSFPFTFGQGTKVEIK	0.108
9O24-oae with LC55E, phage-displayed Fab (Fab, V domains shown, built from 9O24-oae with light chain residue 55 (Kabat; the sixth residue of VL CDR2 WASTLVS) mutated back to Glu; also called 9O24 oaeL2) VH: EVQLVESGGGLVQPGGSLRLSCAVSGYTFSMNWVRQAPGKGLEWVAWINMYTGEKTYADDFKGRFTISRDDSKNTLYLQMNSLRAEDTAVYYCARLYRGNSLDYWGQGTLVTVSS VL: DIQMTQSPSSLSASVGDRVTITCKSSQSLLNSGNWKSYLTWYQQKPGKAPKLLIYWASTLESGVPSRFSGSGSGTDYTLTISSLQPEDFATYYCQNAYFFPFTFGQGTKVEIK	0.0604
